# target or test system: c-Raf-1 (Homo sapiens)
# Sequence (P04049 whole entry, looked up): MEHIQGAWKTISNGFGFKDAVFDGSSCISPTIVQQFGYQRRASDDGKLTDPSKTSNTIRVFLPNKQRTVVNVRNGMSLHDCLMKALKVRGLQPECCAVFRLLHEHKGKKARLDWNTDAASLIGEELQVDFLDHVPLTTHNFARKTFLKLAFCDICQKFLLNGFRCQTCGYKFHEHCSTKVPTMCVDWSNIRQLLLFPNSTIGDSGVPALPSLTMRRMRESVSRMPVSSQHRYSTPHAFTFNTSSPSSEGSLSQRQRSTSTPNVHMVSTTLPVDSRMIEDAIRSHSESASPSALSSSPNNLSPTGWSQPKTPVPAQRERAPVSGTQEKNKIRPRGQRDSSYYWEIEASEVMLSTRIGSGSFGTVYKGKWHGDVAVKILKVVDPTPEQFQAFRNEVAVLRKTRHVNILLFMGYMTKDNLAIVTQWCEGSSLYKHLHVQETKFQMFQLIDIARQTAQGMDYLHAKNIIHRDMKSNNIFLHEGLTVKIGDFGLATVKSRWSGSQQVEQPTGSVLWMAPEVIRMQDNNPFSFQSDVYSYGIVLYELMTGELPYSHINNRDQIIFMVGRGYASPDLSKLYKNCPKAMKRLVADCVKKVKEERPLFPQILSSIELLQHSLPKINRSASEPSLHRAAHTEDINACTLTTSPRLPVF
# assay details: c-Raf-1 kinase activity biochemical assay (AlphaScreen, biotin-MEK1 phosphorylation)
endpoint label: IC50

Example entries begin here.
CN1CCC(Nc2ncnc3[nH]cc(C(=O)c4c(F)ccc(NS(=O)(=O)c5ccc(C(F)(F)F)cc5)c4F)c23)CC1 [P-1057] | < 0.1 µM
CCOc1ncnc2[nH]cc(C(=O)c3c(F)ccc(NS(=O)(=O)c4ccc(C(F)(F)F)cc4)c3F)c12 [P-1006] | < 0.1 µM
CCCc1ccc(S(=O)(=O)Nc2ccc(F)c(C(=O)c3c[nH]c4ncnc(Cl)c34)c2F)cc1 [P-1034] | < 0.1 µM
O=C(c1c(F)ccc(NS(=O)(=O)c2ccc(C(F)(F)F)cc2)c1F)c1c[nH]c2nccc(NC3CCOCC3)c12 [P-2014] | < 0.1 µM
O=C(c1c(F)ccc(NS(=O)(=O)c2ccc(C(F)(F)F)cc2)c1F)c1c[nH]c2ncnc(NCCO)c12 [P-1043] | < 0.1 µM

Respectfully, I request IC50 for each entry included below.
1. CCCc1ccc(S(=O)(=O)Nc2ccc(F)c(C(=O)c3c[nH]c4ncnc(NC5CCOCC5)c34)c2F)cc1 [P-1046]
2. Cc1ncnc2[nH]cc(C(=O)c3c(F)ccc(NS(=O)(=O)c4ccc(C(C)C)cc4)c3F)c12 [P-1009]
3. CCCc1ccc(S(=O)(=O)Nc2ccc(F)c(C(=O)c3c[nH]c4ncnc(OCC)c34)c2F)cc1 [P-1038]
4. O=C(c1c(F)ccc(NS(=O)(=O)c2ccc(C(F)(F)F)cc2)c1F)c1c[nH]c2ncnc(N3CCCC3)c12 [P-1061]

Response:
["< 0.1 µM", "< 0.1 µM", "< 0.1 µM", "> 0.1 µM"]

Respectfully, I request IC50 for each entry included below.
1. COc1ncnc2[nH]cc(C(=O)c3c(F)ccc(NS(=O)(=O)c4ccc(C(C)C)cc4)c3F)c12 [P-1010]
2. CCc1ccc(S(=O)(=O)Nc2ccc(F)c(C(=O)c3c[nH]c4ncnc(OC)c34)c2F)cc1 [P-1008]
3. O=C(c1c(F)ccc(NS(=O)(=O)c2ccc(C(F)(F)F)cc2)c1F)c1c[nH]c2ncnc(NC3CCCC3)c12 [P-1035]
4. COc1ncnc2[nH]cc(C(=O)c3c(F)ccc(NS(=O)(=O)CC(C)C)c3F)c12 [P-1004]
5. CCCc1ccc(S(=O)(=O)Nc2ccc(F)c(C(=O)c3c[nH]c4ncnc(NC(C)C)c34)c2F)cc1 [P-1055]
6. CCCS(=O)(=O)Nc1ccc(F)c(C(=O)c2c[nH]c3ncc(Cl)c(OC)c23)c1F [P-2006]

Response:
["> 0.1 µM", "> 0.1 µM", "< 0.1 µM", "< 0.1 µM", "< 0.1 µM", "< 0.1 µM"]

Source of measurements: patent US9617267B2
